# target-desc: SARS-CoV-2 N-terminal domain-NTD (residue 1-290) (SARS-CoV-2, Wuhan-Hu-1 (MN908947), UniProt P0DTC2)
# method-description: BLI

# binder, binding result
data = [
    ("CC40.8 mAb (IgG) (antibody, V domains shown) VH: EVQLLESGGGLVQPGGSLRLSCAASGFTFSSYVMTWARQAPGKGLEWVSAISGTGYTYYADSVKGRFTVSRDNSKNTLFLQMSSLRAEDTAVYYCAITMAPVVWGQGTTVTVSS VL: SYELTQPPSVSVSPGQTARITCSGDALPKRYAYWYQQKSGQAPILVIYEDKKRPSGIPERLSGSKSGTVATLTISGAQVEDEADYYCYSTDSSGNHAVFGGGTQLTVL", "no binding"),
    ("CC9.3 mAb (IgG) (antibody, V domains shown) VH: QVQLQESGPGLVKPSETLSLTCTVSGGSIRSDFWSWIRQFPGKGLEWIGYIYYSGSTNYNPSLESRVTISVDTSKNEFSLKLNYVTAADTAIYYCARETRWNWLDSWGQGTLVTVSS VL: DIVMTQSPDSLAVSLGERASINCKSSQTISYISNNKNYLAWYQQKPGQPPRLLIYWASTRESGVPDRFSGGGFGTDFTLTISSLQAEDVAVYYCQQYFNTPWTFGQGTKVEIK", "no binding"),
    ("second SARS-CoV-2/HCoV-HKU1 cross-reactive mAb from the CC40 donor (other than CC40.8; name not printed in the text) (antibody, V domains shown) VH: EVQLVESGGGVVQPGRSLRLSCVASGFTFSNYGMHWVRQAPGKGLEWVAVMSYDGSVTYYGDSVRGRFTISRDNSKNTLYLQMSSLRTDDTGVYYCAKGQPLDDIWGLGTLVTVSS VL: EIVMTQSPLSLPVSLGQSASISCRSSQSLVHTDGITYLSWFQQRPGQSPRRLLYKVSNRDSGVPDRFSGSGSGTDFTLKISRVEAEDVGVYYCLQGTYWPWTFGQGTKVEIK", "no binding"),
]
